- Tested on: NCI-H226 lung
- experiment-notes: NCI-60 one-dose screen, 48 h (100 = growth as untreated, 0 = no growth, -100 = all killed)
- run-conditions: 10 µM unless noted
The panel holds about 83,000 compounds, 20% with a hit somewhere; the sample as a whole holds those more often. Activity calls are given as the source filed them. Rule for the calls: active = growth percent below 10; inactive = the rest.
A collection of compounds and their measured growth
metric-name: growth

1. C=C1CC2(OC1=O)C(=O)N(CCCCCCCN1C(=O)C3(CC(=C)C(=O)O3)c3ccccc31)c1ccccc12 (stereo not given) :: 63% (inactive)
2. CCCCCCCCCCCCCC(=O)C(C)N (stereo not given) :: 87.9% (inactive)
3. Cc1cc(=O)oc2cc(Oc3nc(-c4cccs4)cn4c(-c5cccs5)cnc34)ccc12 :: 83% (inactive)
4. COc1ccc(/C=C/C(=O)c2ccc(NC(=O)c3cc4cc5ccccc5nc4s3)cc2)cc1OC :: 86% (inactive)
5. O=C(O)c1ccc2c(c1Sc1ccccc1)C(=O)c1ccccc1C2=O :: 92.6% (inactive)
6. CCCCCCCCCC(=O)Oc1ccc(/C(=C(/C)c2ccccc2)c2ccc(OCCN3CCCC3)cc2)cc1 :: 65.7% (inactive)
7. Cc1cc(N/N=C/c2nc(-c3ccc(Cl)cc3)oc2C)c2cc(Cl)ccc2n1 :: 98.4% (inactive)
8. O=C1c2cc3c(cc2-c2c1c1cc(Cl)c(Cl)cc1c(=O)n2C[C@H](O)CO)OCO3 :: -62% (active)
9. CC[C@H](Nc1ncnc(N)c1C(N)=O)c1nc2cccc(NCc3ccc(C(=O)NO)cc3)c2c(=O)n1-c1ccccc1 :: 102% (inactive)
10. O=C(Cc1ccccc1)c1ccc(Cl)cc1 :: 99% (inactive)

====

- Tested on: SNB-19 CNS
- experiment-notes: NCI-60 one-dose screen, 48 h
- run-conditions: 10 µM unless noted
Compounds without any hit were thinned out: in the full panel of roughly 83,000, 20% have a hit. Calls of active or inactive are those of the source. How the source made its calls: active means growth percent below 10; inactive means the rest.
Classes used: class 1 = active, class 0 = inactive

1) O=S(=O)(NCCCNc1cc(-c2cn(-c3ccccc3)nc2-c2ccccc2)ccn1)c1ccc(C(F)(F)F)cc1 :: class 0
2) CNC(=S)N/N=C/CSC/C=N/NC(=S)NC :: class 0
3) C=C1CC[C@@H]2[C@](C)(COC(C)=O)[C@H](OC(C)=O)CC[C@@]2(C)[C@@H]1CC(Nc1ccc(S(=O)(=O)Nc2nc(C)cc(C)n2)cc1)C1=CCOC1=O (stereo partly specified) :: class 0
4) COc1ccc(C/C(C)=C(\c2ccc(Cl)cc2)c2ccc(OCCN3CCCCCC3)cc2)cc1 :: class 0
5) CCCCCCCCCCCCS(=O)CC(C)O (stereo unspecified) :: class 0
6) C(=N\Nc1ccccn1)/c1ccccn1 :: class 0
7) N=S(=O)(NC(=O)c1ccc(Cl)cc1Cl)c1ccc(Br)s1 (stereo unspecified) :: class 0
8) CN1CCN(Cc2ccc(NC(=O)c3cncc(C#Cc4cnc(N)c5cccnc45)c3)cc2C(F)(F)F)CC1 :: class 0
9) COCCCNc1nc(NC(=O)c2ccc(F)cc2C)cc(-c2cccnc2)n1 :: class 0
10) CCN(CC)C12CCCCC1(C)C(C#N)(C#N)C(C#N)=C(N)O2 (stereo unspecified) :: class 0
11) COc1ccc(/C=C2\N=C3Sc4cc(Cl)ccc4C(=O)N3C2=O)cc1 :: class 0
12) CCOC(=O)c1nc(Nc2cc(C)[nH]n2)c2ccccc2n1 :: class 0
13) COc1ccc(-c2cc(C(=O)N=Nc3c(O)[nH]c4ccccc34)no2)cc1 :: class 0
14) O=C(COCc1c(-c2ccccc2)no[n+]1[O-])Nc1ccc(C(=O)/C=C/c2ccc3c(c2)OCO3)cc1 :: class 0
15) COCCOC(=O)C1=C(C)NC(=S)NC1c1ccc2c(c1)OCO2 (stereo unspecified) :: class 0
16) CC(=O)C1=C(O)C=C2Oc3c(C(=O)/C=C/c4cc(Cl)cc(Cl)c4)c(O)c(C)c(O)c3[C@]2(C)C1=O :: class 1
17) CSc1nc(NCCO)c(C#N)c(-c2cccc(N)c2)n1 :: class 0
18) O=C1Nc2ccccc2C12CC(c1ccc(Cl)cc1)=NN2 (stereo unspecified) :: class 0
19) Cc1ccc(Nc2c(C(N)=O)cnc3ccc(-c4csc(N)n4)cc23)cc1 :: class 0
20) O=C1O[C@H]([C@H](O)CO)C(O)=C1O :: class 0
21) CCCCCCCCCC(=O)Oc1ccc(/C(=C(/C)c2ccccc2)c2ccc(OCCN3CCCC3)cc2)cc1 :: class 1

====

- Test system: OVCAR-4 ovarian
- experiment-notes: NCI-60 one-dose screen, 48 h (100 = growth as untreated, 0 = no growth, -100 = all killed)
- run-conditions: 10 µM unless noted
- Protocol: Growth inhibition of the OVCAR-4 human tumor cell line is measured as a screen for anti-cancer activity. Cells are grown in 96 well plates and exposed to the test compound for 48 hours. Compounds are tested at a single concentration, which is 10^-5 M for most compounds. The reported endpoint is percent growth (GI% or GIPRCNT), where numbers from 0 - 100% represent growth inhibition, and numbers from -100% - 0 represent cell death. For example, a value of 40 represents 60% growth inhibition. […]
The panel holds about 83,000 compounds, 20% with a hit somewhere; the sample as a whole holds those more often. Active and inactive are the calls of the source. How the source made its calls: active means growth percent below 10; inactive means the rest.
metric-name: growth

1. CC(=O)OCC1OC(OC2=C(CC=C(Cl)Cl)C(=O)c3ccccc3C2=O)C(OC(C)=O)C(OC(C)=O)C1OC(C)=O (stereo unspecified) :: -34.4% (active)
2. O=C1c2cccnc2C(=O)c2c1c(C(=O)OCCN1CCCCC1)c1ccccn21 :: 0.138% (active)
3. COc1ccc(/C=N\NC(=O)CN2CCN(c3cc4c(cc3F)c(=O)c(C(=O)N/N=C/c3ccc(OC)cc3)cn4C3CC3)CC2)cc1 :: 80.7% (inactive)
4. COc1cc(C2CC(=O)Nc3c2cnn3Cc2ccco2)cc2c1OCCO2 (stereo unspecified) :: 94.3% (inactive)
5. O=c1ccc2cc3ccccc3cc2[nH]1 :: 95.1% (inactive)
6. Cl/C(=N\Nc1ccccc1)c1ccccc1 :: 92.1% (inactive)
7. CCCCCCCCCc1cc(CN2CCCCC2)c(O)c(CN2CCCCC2)c1 :: 41.3% (inactive)
8. CC(=O)OC1Oc2cc(C)c(C)cc2-c2oc(=O)c(-c3cc4ccc(N(C)C)cc4oc3=O)cc21 (stereo unspecified) :: 89.8% (inactive)
9. C/C(Cc1ccc(Cl)cc1)=C(\c1ccc(OCCN2CCCCCC2)cc1)c1ccc(OC(=O)Cc2ccccc2)cc1 :: 85% (inactive)
10. COc1ccc(-c2nn(-c3ccccc3)cc2/C=C2\SC(=O)NC2=O)cc1 :: 89.5% (inactive)
11. CN1Cc2c(cc(CN3CCCCC3)n2C)C(c2ccc(Br)cc2)C1 (stereo unspecified) :: 86.6% (inactive)

====

- Test system: OVCAR-5 ovarian
- experiment-notes: NCI-60 one-dose screen, 48 h (100 = growth as untreated, 0 = no growth, -100 = all killed)
- run-conditions: 10 µM unless noted
About 83,000 compounds went through this panel and 20% of them were active in at least one assay; those are over-represented in the sample as a whole.
metric-name: growth (%)

1) COCCCN=C(N)c1ccc(NC(=O)c2ccc(C(=O)Nc3ccc(C(N)=NCCCOC)cc3)cc2)cc1 :: 110
2) CC(C)[C@@H]1CC[C@]2(C(=O)NCCCCN=C(N)N)CC[C@]3(C)[C@H](CC[C@@H]4[C@@]5(C)CCC(=O)C(C)(C)[C@@H]5CC[C@]43C)[C@@H]12 :: 97.4
3) Cc1nn(-c2ccccc2)c2nc(C)n(-c3ccc(Br)cc3)c(=O)c12 :: 36.3
4) CCCCCCCCCCCCS(=O)CC(C)O (stereo unspecified) :: 103
5) COc1ccc(C/C(C)=C(\c2ccc(Cl)cc2)c2ccc(OCCN3CCCCCC3)cc2)cc1 :: 82.5
6) O=C(O)c1cccc2c1-c1ccccc1C2=O :: 92.2
7) CN(C)c1ccc(/C=C(\C#N)c2nc3ccccc3s2)cc1 :: 109
8) COc1ccc(C(=O)/C=C/c2cc3ccccc3[nH]c2=O)cc1 :: 52.2
9) C[C@@]1(N2C(=O)OC[C@@H]2c2ccccc2)C(=O)N([C@H](CC(=O)N2CCC(N3CCCCC3)CC2)C(=O)NCc2cccc(C(F)(F)F)c2)[C@@H]1/C=C/c1ccccc1 :: 115
10) CCOC(=O)N1CCN(c2nc(Nc3cc(C)[nH]n3)c3ccccc3n2)CC1 :: 55.9
11) COc1cc2cc(COc3nccc(-c4ccc(Cl)cc4)n3)c(=O)[nH]c2cc1OC :: 96.7
12) CS(CCCCN=C=S)=NC(=O)c1c(F)c(F)c(F)c(F)c1F (stereo unspecified) :: 109
13) CC1=CC(=O)CC(C)(C)[C@@]1(O)/C=C/[C@@H](C)O :: 103
14) CC/C=C\C[C@H](O)C/C=C1/C(=O)C=C[C@@H]1C/C=C\CCCC(N)=O :: 29.8
15) COc1ccc(S(=O)(=O)NCCNc2nccc(-c3c(-c4cccc(N)c4)nc4sccn34)n2)cc1 :: 121
16) CCOC(=O)C12CCCC1=CC(=O)CC2 (stereo unspecified) :: 96.3
17) COc1ccc(S(=O)(=O)NCCCNc2nccc(-c3c(-c4cccc(N)c4)nc4sccn34)n2)cc1 :: 134
18) CN1CCCCC1CCN1c2ccccc2Sc2ccc(Br)cc21 (stereo unspecified) :: 85.9
19) O=C(CO[N+](=O)[O-])Nc1ccc(C(=O)/C=C/c2ccc(Cl)cc2)cc1 :: 66.9
20) O=C1CC(c2nc3ccccc3s2)CN1C1CCCCC1 (stereo unspecified) :: 99.8
21) NC(=S)N/N=C/c1cc(-c2cccc(N)c2)ccn1 :: 46.1

Sourced from PubChem BioAssay (NCI)
